- method-description: qHTS assay for identifying genotoxic compounds that show differential cytotoxicity against isogenic chicken DT40 cell lines with known DNA damage response pathways - Rad54/Ku70 mutant cell line (AID 743015); note: nearly all actives have a fitted effect of over 60% in size
- experimental-parameters: DT40 Rad54/Ku70 mutant viability, CellTiter-Glo, 40 h; series mostly up to 66.8 µM
Records with an inconclusive call do not appear. Activity calls are given as the source filed them. Calls come from the whole dose curve; as a rule, active = well fitted cell-killing curve with a large enough effect in the repeat runs; inconclusive = weak or mixed curves; inactive = no such curve, though single readings can be large or run the other way.
Use one of these outcomes when replying: active, inactive

[in] Please state the recorded outcome for this molecule: NC(=O)Cc1cccc(C(=O)c2ccccc2)c1N
[out] inactive

[in] Moving on to the next molecule: CCOC(=O)C(Br)c1ccccc1 (centres undefined)
[out] inactive

[in] Moving on to the next molecule: CC1(O)CSC(C)(O)CS1 (centres undefined)
[out] active

[in] Moving on to the next molecule: NS(=O)(=O)c1cc(-c2nn[nH]n2)c(NCc2cccs2)cc1Cl
[out] inactive

[in] Moving on to the next molecule: CC(C)C[C@H](NC(=O)OCC1c2ccccc2-c2ccccc21)C(=O)O
[out] inactive

[in] Moving on to the next molecule: CN(CC1(C)CCCO1)S(=O)(=O)c1ccc(Cl)c(S(N)(=O)=O)c1 (centres undefined)
[out] inactive

[in] Moving on to the next molecule: Cc1ncc(CO)c(CN)c1O
[out] inactive

[in] Moving on to the next molecule: CC1CN(c2ccccc2)NC1=O (centres undefined)
[out] inactive

[in] Moving on to the next molecule: CCC/C=C/CO
[out] inactive

[in] Moving on to the next molecule: CCCCNC(=S)NCCCC
[out] active

[in] Moving on to the next molecule: O=C1CCCCC1C1CCCCC1 (centres undefined)
[out] inactive

[in] Moving on to the next molecule: COC(=O)c1ccc(OC)cc1
[out] inactive

[in] Moving on to the next molecule: O=C1CCCCCCCCCCC(=O)OCCO1
[out] inactive

[in] Moving on to the next molecule: Cc1ccc(C)c(N)c1
[out] inactive

[in] Moving on to the next molecule: C=CCCC=C
[out] inactive

[in] Moving on to the next molecule: COc1ccccc1OCC(O)COC(N)=O (centres undefined)
[out] inactive

[in] Moving on to the next molecule: CC(C)S
[out] inactive

[in] Moving on to the next molecule: CCOC(=O)c1ccccc1O
[out] inactive

[in] Moving on to the next molecule: CN(C)CC[C@@H](c1ccc(Cl)cc1)c1ccccn1
[out] inactive

[in] Moving on to the next molecule: O=C(O)C(=O)Cc1c[nH]c2ccccc12
[out] inactive

[in] Moving on to the next molecule: CO[C@@]1(NC(=O)CSCC#N)C(=O)N2C(C(=O)O)=C(CSc3nnnn3C)CS[C@@H]21
[out] inactive

[in] Moving on to the next molecule: CCN(O)CC
[out] inactive

[in] Moving on to the next molecule: CCCCCOc1ccc(C2SC(=O)NC2=O)cc1OCC (centres undefined)
[out] inactive

[in] Moving on to the next molecule: CS(=O)(=O)c1ccc([C@@H](O)[C@@H](CF)NC(=O)C(Cl)Cl)cc1
[out] active

[in] Moving on to the next molecule: CCOC(=O)COc1ccc2c(c1)CC(NCC(O)c1cccc(Cl)c1)CC2 (centres undefined)
[out] active

[in] Moving on to the next molecule: CC(C)NCC(O)COc1ccc(CCOCC2CC2)cc1 (centres undefined)
[out] active

[in] Moving on to the next molecule: CC(C)=CCC[C@](C)(O)[C@@H]1CC=C(C)CC1
[out] inactive

[in] Moving on to the next molecule: O=C1CCC(C2CCCCC2)CC1
[out] inactive

[in] Moving on to the next molecule: CCOC(=O)C1CC(=O)C(=C(O)C2CC2)C(=O)C1 (centres undefined)
[out] inactive
